Tested on: Escherichia coli TOP10;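 further: peptides expressed intracellularly from a pBAD plasmid library in pooled LB shake-flask culture, induced with 0.3% L-arabinose, DNA abundance read by NGS, three biological replicates, DESeq2 with apeglm shrinkage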
Assay: shrunken log2 fold change of peptide-encoding DNA abundance (4.5 h post-induction vs induction); higher = less antimicrobial activity (less host growth inhibition)
Conditions: time post-induction: 4.5 h; library: site-saturation at positions 5, 18, 19, 20
Observed property: shrunken log2 fold change
Give bare numbers.

1) RRIRCRPPRLPRPRPRPQVHPRP = -0.233

Field: shrunken log2 fold change. Fill in for each record below.
1. RRIRHRPPRLPRPRPRPYFLPRP
2. RRIRQRPPRLPRPRPRPHFTPRP
3. RRIRIRPPRLPRPRPRPTDGPRP
4. RRIRWRPPRLPRPRPRPQHRPRP
5. RRIRWRPPRLPRPRPRPHINPRP
6. RRIRERPPRLPRPRPRPVIEPRP

Given back:
-0.996
-0.217
-0.00546
0.25
-0.491
-0.201

Asked: Any idea what shrunken log2 fold change came out for "RRIRFRPPRLPRPRPRPLFDPRP" on Escherichia coli TOP10?
Given back: -0.578

Data origin, for the record: the supplement of paper PMC9112550
